System: Candida parapsilosis
protocol summary: Antifungal activity against Candida parapsilosis ATCC 90018 assessed as inhibition of fungal growth by broth microdilution method
Format: functional
run parameters: Lodderomyces parapsilosis
assay endpoint: MIC80 (µg/mL)
Lab book: enter the figure in µg/mL, no units written.

Here are 5 molecules together with their reported answers.
CC/C(=C\c1ccc(OC)c(OC)c1)[N+](=O)[O-] = 32
CC/C(=C\c1ccc(OC)cc1)[N+](=O)[O-] = 8
O=[N+]([O-])/C=C/c1ccc(O)cc1 = 8
C/C(=C\c1ccc(N(C)C)cc1)[N+](=O)[O-] = 32
CC/C(=C\c1cccc([N+](=O)[O-])c1)[N+](=O)[O-] = 32

(Q) What does the data say about its MIC80? Entry: `COc1ccc(/C=C(\C)[N+](=O)[O-])cc1`
(A) 16

(Q) What does the data say about its MIC80? Entry: `COc1ccc(/C=C/[N+](=O)[O-])cc1OC`
(A) 32

(Q) What does the data say about its MIC80? Entry: `O=[N+]([O-])/C=C/c1cccc(O)c1`
(A) 16

* * *

Tested on: Candida albicans
protocol summary: Synergistic antifungal activity against Candida albicans ATCC 24433 overexpressing ADCaMDR1-GFP assessed as fractional inhibitory concentration index incubated for 48 hrs in presence of caspofungin by checker board assay
Format: functional
assay endpoint: fractional inhibitory concentration index (FICI)

Here are 5 compounds together with their reported answers.
CC/C(=C\c1cccc([N+](=O)[O-])c1)[N+](=O)[O-] = <0.5
COc1ccc(/C=C(\C)[N+](=O)[O-])cc1 = <0.5
O=[N+]([O-])/C=C/c1ccc(O)cc1 = <0.5
O=[N+]([O-])/C=C/c1cccc(O)c1 = <0.5
CC/C(=C\c1ccc(OC)cc1)[N+](=O)[O-] = <0.5

(Q) Form: Entry = `CC/C(=C\c1ccc(OC)c(OC)c1)[N+](=O)[O-]` | System = Candida albicans | fractional inhibitory concentration index (FICI) = ____
(A) <0.5

* * *

System: Candida albicans
protocol summary: Antifungal activity against Candida albicans ATCC 24433 assessed as inhibition of fungal growth by broth microdilution method
Format: functional
Attribute: MIC80
Lab book: enter the figure in µg/mL, no units written.

Here are 7 compounds together with their reported answers.
COc1ccc(/C=C/[N+](=O)[O-])cc1OC = 32
CC/C(=C\c1ccc(OC)cc1)[N+](=O)[O-] = 4
C/C(=C\c1ccc(N(C)C)cc1)[N+](=O)[O-] = 16
O=[N+]([O-])/C=C/c1cccc(O)c1 = 16
CC/C(=C\c1cccc([N+](=O)[O-])c1)[N+](=O)[O-] = 32
CC/C(=C\c1ccc(OC)c(OC)c1)[N+](=O)[O-] = 16
COc1ccc(/C=C(\C)[N+](=O)[O-])cc1 = 8

Field: next compound
(Q) What does the data say about its MIC80? Entry: `O=[N+]([O-])/C=C/c1ccc(O)cc1`
(A) 4

* * *

Attribute: fractional inhibitory concentration index (FICI)
System: Candida albicans
protocol summary: Synergistic antifungal activity against Candida albicans ATCC 24433 assessed as fractional inhibitory concentration index incubated for 48 hrs in presence of caspofungin by checker board assay
Format: functional

CC/C(=C\c1ccc(OC)cc1)[N+](=O)[O-] = <2.5

(Q) Form: Entry = `O=[N+]([O-])/C=C/c1ccc(O)cc1` | System = Candida albicans | fractional inhibitory concentration index (FICI) = ____
(A) <3.5

(Q) Form: Entry = `CC/C(=C\c1cccc([N+](=O)[O-])c1)[N+](=O)[O-]` | System = Candida albicans | fractional inhibitory concentration index (FICI) = ____
(A) <0.5

(Q) Form: Entry = `COc1ccc(/C=C(\C)[N+](=O)[O-])cc1` | System = Candida albicans | fractional inhibitory concentration index (FICI) = ____
(A) <1.5
